System: S. aureus VISA/HIP5827
Assay: MIC, broth microdilution, vancomycin-intermediate S. aureus VISA HIP5827
Type: cell-based, Staphylococcus aureus
Settings: Staphylococcus aureus VISA/HIP5827; read-out: MIC
value kind: log10(MIC) (log10 of the value in µM)
Values are log10 of MIC in µM.

CNC(CC(C)C)C(=O)NC1C(=O)NC(CC(N)=O)C(=O)NC2C(=O)NC3C(=O)NC(C(=O)NC(C(=O)NCCCNC(=O)c4cc5cc(F)ccc5[nH]4)c4cc(O)cc(O)c4-c4cc3ccc4O)C(O)c3ccc(c(Cl)c3)Oc3cc2cc(c3OC2OC(CO)C(O)C(O)C2OC2CC(C)(N)C(O)C(C)O2)Oc2ccc(cc2Cl)C1O (stereo not drawn) : 0.19

Next item in the queue.
Tested on S. aureus VISA/HIP5827: CCc1cccc(C)c1NC(=O)CNC(=O)C1NC(=O)C2NC(=O)C(NC(=O)C3NC(=O)C(CC(N)=O)NC(=O)C(NC(=O)C(CC(C)C)NC)C(O)c4ccc(c(Cl)c4)Oc4cc3cc(c4OC3OC(CO)C(O)C(O)C3OC3CC(C)(N)C(O)C(C)O3)Oc3ccc(cc3Cl)C2O)c2ccc(O)c(c2)-c2c(O)cc(O)cc21 (stereo not drawn) . Observed log10(MIC): 0.50

###

In this section, each of the compounds is paired with its reported IC50.
System: Murine leukemia (L1210) cells
Assay: Cytostatic activity, L1210 cell proliferation
Assay type: cell-based
Details: mean ± SD of three experiments; highest concentration tested 250 µM; 2 days; read-out: Toxicity (IC50) L1210
Report the value in µM with no unit label.

CN[C@H](CC(C)C)C(=O)N[C@H]1C(=O)N[C@@H](CC(N)=O)C(=O)N[C@H]2C(=O)N[C@H]3C(=O)N[C@H](C(=O)N[C@H](C(=O)NCCNC(=O)/C=C/c4ccc(C)cc4)c4cc(O)cc(O)c4-c4cc3ccc4O)[C@H](O)c3ccc(c(Cl)c3)Oc3cc2cc(c3O[C@@H]2O[C@H](CO)[C@@H](O)[C@H](O)[C@H]2O[C@H]2C[C@](C)(N)[C@H](O)[C@H](C)O2)Oc2ccc(cc2Cl)[C@H]1O [Vanc-53] : 176

Next item in the queue.
Value of measured IC50 for the entry CCCCCCCc1ccc(C(=O)NCCCNC(=O)C2NC(=O)C3NC(=O)C(NC(=O)C4NC(=O)C(CC(N)=O)NC(=O)C(NC(=O)C(CC(C)C)NC)C(O)c5ccc(c(Cl)c5)Oc5cc4cc(c5OC4OC(CO)C(O)C(O)C4OC4CC(C)(N)C(O)C(C)O4)Oc4ccc(cc4Cl)C3O)c3ccc(O)c(c3)-c3c(O)cc(O)cc32)cc1 (stereo not drawn) [Vanc-31] : 8.8

###

In this section, each of the compounds is paired with its reported IC50.
Test system: Murine leukemia (L1210) cells
Assay: Cytostatic activity, L1210 cell proliferation
Assay type: cell-based
Details: mean ± SD of three experiments; highest concentration tested 250 µM; 2 days; read-out: Toxicity (IC50) L1210

See these solved cases before continuing.
CCc1ccc(NC(=O)CNC(=O)[C@H]2NC(=O)[C@H]3NC(=O)[C@H](NC(=O)[C@@H]4NC(=O)[C@H](CC(N)=O)NC(=O)[C@H](NC(=O)[C@@H](CC(C)C)NC)[C@H](O)c5ccc(c(Cl)c5)Oc5cc4cc(c5O[C@@H]4O[C@H](CO)[C@@H](O)[C@H](O)[C@H]4O[C@H]4C[C@](C)(N)[C@H](O)[C@H](C)O4)Oc4ccc(cc4Cl)[C@H]3O)c3ccc(O)c(c3)-c3c(O)cc(O)cc32)cc1 : > 250 µM
CN[C@H](CC(C)C)C(=O)N[C@H]1C(=O)N[C@@H](CC(N)=O)C(=O)N[C@H]2C(=O)N[C@H]3C(=O)N[C@H](C(=O)N[C@H](C(=O)NCC(=O)Nc4ccc(C)cc4C)c4cc(O)cc(O)c4-c4cc3ccc4O)[C@H](O)c3ccc(c(Cl)c3)Oc3cc2cc(c3O[C@@H]2O[C@H](CO)[C@@H](O)[C@H](O)[C@H]2O[C@H]2C[C@](C)(N)[C@H](O)[C@H](C)O2)Oc2ccc(cc2Cl)[C@H]1O : > 250 µM

Next item in the queue.
Value of measured IC50 for the entry CNC(CC(C)C)C(=O)NC1C(=O)NC(CC(N)=O)C(=O)NC2C(=O)NC3C(=O)NC(C(=O)NC(C(=O)NCCCNC(=O)c4ccc5cc(NS(=O)(=O)c6ccc(C)cc6)ccc5c4)c4cc(O)cc(O)c4-c4cc3ccc4O)C(O)c3ccc(c(Cl)c3)Oc3cc2cc(c3OC2OC(CO)C(O)C(O)C2OC2CC(C)(N)C(O)C(C)O2)Oc2ccc(cc2Cl)C1O (stereo not drawn) : > 250 µM

The values you see were collected from paper PMC6001238.
